- protocol details: yeast display, Sf9 membrane polyspecificity reagent, FACS + sequencing; frameworks hold sequencing errors
quantity measured: polyreactivity (PSR sort gate)

{"columns": ["sequence content", "value reported"],
 "data": [
  ["QVQLQESVVGLVQAGGSLRLSCAASGNIIPTDRMGWYRQAPGKELEFVATISHGGSTNYADSVKGRFTISRDNAKNTVYLQMNSLKPEDTAVYYCAVWSLGSWRHYYWGQGTQVTVSS", "low polyreactivity"],
  ["QGQLVESGGGLVQAGGSLRLSCAASGFTFSPYAMGSYRQAPGKERELVAVISGGGSTYYADSVKGRFTISRDNAKNTVYLQMNSLKPEDTAVYYCAKRFYRSYYWGQGTQVTVSS", "high polyreactivity"],
  ["QVQHVESGGGLVQAGGSLRLSCAASGSTFYYYAMGWYRQAPGKERELVAAIRSDVSTNYADSVKGRFTISRDNAKNTVYLQMNSLKPEDTAVYYCAARFPWNRVTYDYWGQGTQVTVSS", "low polyreactivity"],
  ["QVQLVESGGGLVQAGGSLRLSCAASGSTFYYNAMGWYRQAPGKEREFVAANSSRGGSTYYADSVKGRFTISRDNAKNTVYLQMNSLKPEDTAVYYCAADYYVWTPIGVRQYDYWGHGTQVTVSS", "high polyreactivity"],
  ["QVQLVESGGGLFQAGGSLRLSCAASGRIFGPYAMGWYRQAPGKERELVATITLRGGSTYYADSVKGRFTISRDNAKNTVYLQMNSLKPEDTAVYYCNARYYSLVYRYDYWGQGTQVTVSS", "high polyreactivity"],
  ["QVQLVESGGGLVQAGGSLRLSCAASGYTFSSYTMGWYRQAPRKERELVAAITYSGGSTYYADSVKGRFTISRDNAKNTVYLQMNSLKPEDTAVYYCNARGRYAYAYWGQGTQVTVSS", "low polyreactivity"],
  ["QVQLVESGGGLVQAGGSLRLSCAASGFTFYYYAMGWYRQAPGKERELVAAISSRGGNTYYADSVKGRFTISRDNAKNTVYLQMNSLKPEDTAVYYCASVPLKYDYWGQGTQVTVSS", "high polyreactivity"],
  ["QVQLVESGGGLVQAGGSLRLSCAASGRTFRWYAMGWYRQAPGKERELVASITWSGGSTYYADSVKGRFTISRDNAKNTVYLQMNSLKPEDTAVYYCAARDRRGAYYYWGQGTQVTVSS", "high polyreactivity"],
  ["QVQLVESGGGLVQAGGSLRLSCAASGRTFNRYAMGWYRQAPGKERELVAAINWSGGSTYYADSVKARFTISRDIAKTTVYLPMNSLKPEDTAVYYCAADVWGWGLRPYDYWGQGTQVTVSS", "low polyreactivity"],
  ["QVQLVESGGGLVQAGGSLRLSCAASGFIFRRNAMGWYRQAPGKERELVAAIRFRSGSTYYAHSVKGRFTISRDNAKNTVYLQKNSLKPEDTAVYYCAADNKRSWRYAYNYWGQRTQVTVSS", "high polyreactivity"],
  ["QVQLVESGGGLVQAGGSLRLSCAASGYTFDLYAMGWYRQAPGKERELVADISSGGSTNYADSVKGRFTISRDNAKNTVYLQMNSLKPEDTAVYYCAVDADRSLFGQYYVSEYGGGYWGQGTQVTVSS", "low polyreactivity"]
]}

---

- protocol details: yeast display, Sf9 membrane polyspecificity reagent, FACS + sequencing; frameworks hold sequencing errors
quantity measured: polyreactivity (PSR sort gate)

{"columns": ["sequence content", "value reported"],
 "data": [
  ["QVHLVESGGGLVQAGVSLRLSCAASGSTFGHNAMVWYRQAPGKERELVAAISSIGGSTNYADSVKGRFTISRDNAKNTVYFQMNSLKPEDTAVYYCNAGPGLRYVSPYDYWGQGTQVTVSS", "low polyreactivity"],
  ["QVQLVESGGGLVQAGGSLRLSCAASGRIFTKNAMGWYRQAPGKERELVAAISWSTSRTYYADSVKGRFTISRDNAKNTVYLQMNSLKPEDTAVYYCAAVYRLRGAFSRGYWGQGTQVTVSS", "high polyreactivity"],
  ["QVQLVESGGGLVQAGGSLRLSCAASGGIFGANAMGWYRQAPGKERELVAAITWRGGSTYYADSVKGRFTISRDNAKNTVYLQMNSLKPEDTAVYYCAKSFVRYKGRYYWGQGTQVTVSS", "high polyreactivity"],
  ["QVQLVESGGGLVQEGGSLRLSCAASGRIFKYNAMGWYRQAPGKERELVAAISSSGGSTYYADSVKGRFTISRDNAKNTVYLHMNSLKPEDTAVYYCAARYNSRVYRYDYWGQGTQVTVSS", "high polyreactivity"],
  ["QDQLVESGGGLVQAGGSLRLSCAASGLIFGYYAMGWYRQAPGKERELVAVISYSGGSTYYADSVKGRYTISRDNAKNTVYFQMNSMKPEDTAVYYCNTYRAYYRHTKEYGYWGQGTLVTVSS", "high polyreactivity"],
  ["QVQLVESGGGLVQAGGSLRLSCAASGSTFTLYAMGWYRQAPGKERELVAAITWRGGSTFYADSVKGRFTISRDNAKNTVYLQMNSLKPEDTAVYYCAADYYSYVVGRIDYWGQGTQVTVSS", "high polyreactivity"],
  ["QVQLVESGGGLVQAGGSLRLSCAASGSIFRGYAMGWYRQAPGKERELVAAITSSGGSTNYADSVKGRFTISRDNAKNTVYLQMNSLKPEDTAVYYCAKAPGLWHLIQRMDYWGQVTQVTVSS", "low polyreactivity"],
  ["QVQLVESGGGLVQARGSLRLSCAASGTIFASNAMGWLRKAPGKVRELVAAINSGGNTYADSVKGRFTITRDNAKNTVYVHMNSLKPEDTAVYYCAVVWNWCSGLSPGYPEFDYWGQGTQVTVSA", "low polyreactivity"],
  ["QVQLVESGGGLVQAGGSLRLSCAASGSTFRRYAMGWYRQAPGKERELVAAIRQRGTSTYYADSVKGRFTISRDNAKNTVYLQMNSLKPEDTAVYYCAAGPSLWLFNSWGQGTQVTVSS", "high polyreactivity"],
  ["QVQLVKSGGGLVQAGGSLRLSCAASGRIIDRNAMGWYRQAPGKERELVAAISSSGSTNYADSVKGRFTISRDNAKNTVYLQMNSLKPQDTAVYYCAARWRSVLAAGTRPVSFDYWGQGTQVTVSS", "low polyreactivity"],
  ["QVQLVESGGGLVQAGGSLRLSCAASGSIFYTYAMGWYRQAPGKERELVARIDYSTGNTYYADSVKGRFTISRDNAKNTVYLQMNSLKPEDTAVYYCAARDWSSFTGAYDYWGQGTQVTVSS", "high polyreactivity"],
  ["QVQLVESGGGLVQAGGSLRFSCAASGNIFVVYTMGWDRQAPGKERELVADITSIGTSTYYADSVKGRFTISRDNAKNTVYLQMNSLKPEDTAVYYCNKDGSVWGKYTEYYWGQGTQVTVAS", "low polyreactivity"],
  ["QVQLVESGGGLVQAGGSLRLSCAASGFIFNIYAMGWYRQAPGKERELVAAITFSGGSTYYADSVKGRFTISRDNAKNTVYLQMNSLKPEDTAVYYCAADYLSEYTTYDYWGQGTQVTVSS", "low polyreactivity"],
  ["QVQLVESGGGLVQAGGSLRFSCAASGSTFVYYGMGWDRQAPGKERELVAAITDIGDSTNYADSVKGRFTISRDNAKNTVYLQMNSLKPEDTAVYYCAASGRSVPYYGSPRNDYWGQGTQVTVSS", "low polyreactivity"],
  ["QVQLVESGGGLVQAGGSLRLSCAASGSTFFIYTMGWYRQAPGKEREFVAAISWTGGRTYYADSVKGRFTISRDNAKYTVYLQMNSLIPEDTPVYYCAALYKYSSYDYWGQGTQVTVSS", "high polyreactivity"],
  ["QVHLVDSGRGLVQAGGSLRLSCAASGSTFAEYVMGRYRQAPGKERELVASIDSGGGTNYADSVKGRFTISRDNAKNTVYLQMNSLKPEDTAVYYCAASGRDIGGYDYWGHGTQVTVSS", "low polyreactivity"],
  ["QVQLVESGGGLVQAGGSLRLSCAASGFTFAYYAMGWYRQAPGKERELVASITSGGSTYYADSVKGRFTISRDNAKNTVYLQMNSLKPEATAVYYCAARVRSELIKRYYWGQGTQVTVSS", "high polyreactivity"],
  ["QVHLVESGGGLVQAGGSLRLSCAASGRTFIYYAMGWYRQAPGKERELVASITTGGRTYYADSVKGRFTISRDNAKNTVYLQMNSLKPEDSAVYYCAAEPHFFWYYHYVYGEHDYWGQGTQVTVSS", "high polyreactivity"],
  ["QVQLVESGGGLVQAGVSLRLSCDASGSTFHYYVMGSSRQAPGKEREFVAAISRSGGNPYYADSVKGRFTISRDNAKNTVYLQMNSLKPDDTAVYYCAAALSAYVKWDYYYCGQGTQVTVSS", "low polyreactivity"],
  ["QVQLVESGGGLVQAGGILRLSCAASGRILDGYAMGWYRQAPGKERELVAAISSRGGRTYYADSVKGRFTISRDNAKNTVYLQMNSLKPEDTAVYYCAATRYGTYEYNYWGQGTQVTVSS", "high polyreactivity"],
  ["QVQLEESGGGLVQAGGSLRLSCAASGRTFITYAMGWYRQAPGKVRELVASITSNGGRTYYADSVKGRFKISRDNAKNTVYLQMNSLKPEYTAVYYCSAGTRSRAPYYRTSVDTYGYWGQGTQVTVSS", "low polyreactivity"]
]}

meta.source: the nanobody polyreactivity screen of Harvey et al. (2022)
